assayed_system: A1PI (Homo sapiens, UniProt P01009)
Construct: Human plasma is currently the only approved source of therapeutic AlPI
Sequence (P01009 25-418): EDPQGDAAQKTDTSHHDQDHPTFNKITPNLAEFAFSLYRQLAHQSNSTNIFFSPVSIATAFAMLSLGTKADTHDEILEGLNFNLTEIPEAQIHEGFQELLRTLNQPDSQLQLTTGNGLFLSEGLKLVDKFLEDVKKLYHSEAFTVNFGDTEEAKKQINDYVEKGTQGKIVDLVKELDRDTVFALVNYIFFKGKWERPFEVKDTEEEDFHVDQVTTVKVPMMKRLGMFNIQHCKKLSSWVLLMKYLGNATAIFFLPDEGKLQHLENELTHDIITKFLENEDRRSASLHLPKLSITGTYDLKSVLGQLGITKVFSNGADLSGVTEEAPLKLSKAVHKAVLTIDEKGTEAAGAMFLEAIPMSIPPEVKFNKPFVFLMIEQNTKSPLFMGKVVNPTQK
assay_overview: A1PI binding on peptide-resin column, injection of 1 mg A1PI in equilibration buffer
cond: 1 mg A1PI in equilibration buffer, 20° C.
Ends that are not written are not given here.
outcome_measure: Percent A1PI Eluted by Fraction, Flowthrough (%)

Take a look at these entries with their results.
{"columns": ["substance", "experimental_result"],
 "data": [
  ["RLWRYG", 0],
  ["IWRKYS", 0]
]}

P: NWKRVR
Q: WIKWTK
query: Which of these two has the smaller recorded Percent A1PI Eluted by Fraction, Flowthrough: P or Q ? Write down the label of the entry you select.
result: P

A: VIWLVR
B: LIVHRW
C: IIWLYK
query: Hi! Can you put these in order of Percent A1PI Eluted by Fraction, Flowthrough, lowest number first? Return the labels ranked in the requested order, please.
result: B, A, C
(B: 0%, A: 8%, C: 28%)
